These data points were gathered from patent US20250214993A1.

- System: mPTP-active Daoy cell
- Test: Cell viability (Promega CellTiter-Glo), IC50 on mPTP-active Daoy cell
- Format: cell-based
- Condition description: Homo sapiens; Daoy cell transfected with empty virus vector
Measurement label: log10(IC50) (log10 of the value in nM)
The base-10 logarithm of IC50, taken with IC50 in nM, is what appears here.

Please review the entries below; each comes with its answer.
Request: Note down log10(IC50) recorded for O=C(Cn1c(Cl)cc2c[n+](Cc3ccccc3)ccc21)c1cccc(OC(F)(F)F)c1 [AB27486]
Response: 2.76

Request: Given the compound Cc1c[n+](Cc2ccccc2)cc2ccn(CC(=O)c3cccc(Cl)c3)c12 [AB27257] , write its reported log10(IC50).
Response: 3.33

Request: Give log10(IC50) for the following compound: Cc1ccc(C(=O)C[n+]2ccc(NCc3ccccc3)cc2C)c(F)c1 [AB27325]
Response: 3.30

Request: State its log10(IC50): Cc1c(Cl)c2c[n+](Cc3ccccc3)ccc2n1CC(=O)c1cccc(OC(F)(F)F)c1 [AB27483]
Response: 3.92

Request: Please supply the value of reported log10(IC50) for the item O=C1c2ccc(OC(F)(F)F)cc2CCC1[n+]1ccc2c(ccn2Cc2ccccc2)c1 (centres unmarked) [AB24997]
Response: 3.93

More entries:
Request: Look up log10(IC50) of Cc1cc2c[n+](Cc3ccccc3)ccc2n1CC(=O)c1cccc(OC(F)(F)F)c1 [AB27455] and report it.
Response: 2.56

Request: Give log10(IC50) for CC(c1ccccc1)n1cc2cc[n+](C3CCc4ccc(Cl)cc4C3=O)cc2c1 (centres unmarked) [AB27481]
Response: 3.43

Request: Name the recorded log10(IC50) of the compound listed here: Cc1c(C)n(CC(=O)c2cccc(OC(F)(F)F)c2)c2cc[n+](Cc3ccccc3)cc12 [AB27492]
Response: 3.57

----------
- Test system: mPTP-active Daoy cell
- Test: Cell viability (Promega CellTiter-Glo), IC50 on mPTP-active Daoy cell
- Assay type: cell-based
- Condition description: Homo sapiens; Daoy cell transfected with empty virus vector
// class assignment uses IC50 with these ranges: lower segment (below 3 µM), middle segment (3 µM to below 7 µM), upper segment (7 µM or more)

Study these solved cases before continuing.
Request: Where would Cc1cn(Cc2ccccc2)c2cc[n+](C3CCc4ccc(F)cc4C3=O)cc12 (stereo not shown) land among the classes by reported IC50?
Response: middle segment

Request: Band for the recorded IC50 of `Cc1cn(CC(=O)c2cccc(C(F)(F)F)c2)c2cc[n+](Cc3ccccc3)cc12` ?
Response: upper segment

Request: Could you tell me which band `Cc1ccc(C(=O)C[n+]2ccc3c(c2)CCN3Cc2ccccc2)cc1` belongs to?
Response: middle segment

---
Request: Determine which band this molecule sits in: O=C1c2cc(F)ccc2CCC1[n+]1cnc2c(ccn2Cc2ccccc2)c1 (stereo not shown)
Response: middle segment

Request: Any idea which band `Cc1ccc(C(=O)Cn2ccc3c[n+](Cc4ccccc4)cc(C)c32)cc1` is in?
Response: lower segment

Request: // bin(item) where item = O=C1c2cc(Cl)ccc2CCC1[n+]1ccc(NCc2ccccc2)nc1 (stereo not shown)
Response: upper segment

Request: Just checking, what class would you give Cc1ccc2c(c1)CCC(n1ccc3c[n+](C(C)c4ccccc4)ccc31)C2 (stereo not shown) here?
Response: lower segment

Request: Place this molecule in its band: O=C1c2cc(Cl)ccc2CCC1n1ccc2c[n+](Cc3ccccc3)ccc21 (stereo not shown)
Response: lower segment

Request: Determine which band this molecule sits in: `Nc1cc[n+](CC(=O)c2ccc(OC(F)(F)F)cc2)cc1`
Response: upper segment

----------
- System: mPTP-active Daoy cell
- Test: Cell viability (Promega CellTiter-Glo), IC50 on mPTP-active Daoy cell
- Type: cell-based
- Condition description: Homo sapiens; Daoy cell transfected with empty virus vector
Simple rule here: IC50 less than 4 µM is 1.0, otherwise 0.0.

Worked set:
Request: Here's an entry: O=C1c2cc(Cl)ccc2CCC1[n+]1cnc2c(ccn2Cc2ccccc2)c1 (stereo not drawn) . Is its IC50 below 4 µM?
Response: 1.0

Request: Criterion: IC50 strictly below 4 µM. Is it met by O=C1c2cc(C(F)(F)F)ccc2CCC1n1ncc2c[n+](Cc3ccccc3)ccc21 (stereo not drawn) ?
Response: 0.0

***
Request: Answer whether the compound `O=C(Cn1c(Cl)cc2c[n+](Cc3ccccc3)ccc21)c1cccc(C(F)(F)F)c1` has IC50 strictly less than 4 µM
Response: 1.0

Request: Is the reported IC50 for Cc1ccc2c(c1)CCC(n1ncc3c[n+](Cc4ccccc4)ccc31)C2=O (stereo not drawn) strictly below 4 µM?
Response: 0.0

Request: Lab note: confirm whether the reported IC50 for this compound is below 4 µM, equality not counting. compound: O=C1c2cc(Cl)ccc2CCC1n1cnc2c[n+](Cc3ccccc3)ccc21 (stereo not drawn)
Response: 1.0

Request: Does the reported IC50 of O=C1c2cc(Cl)ccc2CCC1n1ccc2c[n+](CC3CCCC3)ccc21 (stereo not drawn) stay below 4 µM?
Response: 0.0

Request: Please check: IC50 for `Cc1ccc(C(=O)CNc2cc[n+](Cc3ccccc3)cc2)cc1` , strictly under 4 µM or not?
Response: 0.0

Request: Consider the compound Cc1c2ccn(Cc3ccccc3)c2cc[n+]1C1CCc2ccc(Cl)cc2C1=O (stereo not drawn) . Is its IC50 strictly less than 4 µM?
Response: 0.0

Request: Strictly below 4 µM: is that where IC50 of Cc1ccc2c(c1)C(=O)C(n1ccc3c[n+](Cc4ccccc4)ccc31)CC2 (stereo not drawn) sits?
Response: 1.0

----------
- Tested on: mPTP-active Daoy cell
- Test: Cell viability (Promega CellTiter-Glo), IC50 on mPTP-active Daoy cell
- Format: cell-based
- Condition description: Homo sapiens; Daoy cell transfected with empty virus vector
Here, each record is paired with measured pIC50 data.
Notebook: values listed as pIC50 are -log10 of the concentration (mol/L).

Request: Provide the reported pIC50 (system: mPTP-active Daoy cell) for `O=C(Cn1ncc2c[n+](Cc3ccccc3)ccc21)c1cccc(OC(F)(F)F)c1`
Response: 5.00

Request: Fill: pIC50 (mPTP-active Daoy cell) for this compound O=C(C[n+]1ccc2c(c1)CCC(c1ccccc1)N2)c1ccc(OC(F)(F)F)cc1 (stereo not shown)
Response: 5.05

Further cases:
Request: Using mPTP-active Daoy cell as the test system, report measured pIC50 of `Cc1ccc(C(=O)Cn2c(C)cc3c[n+](Cc4ccccc4)ccc32)cc1` .
Response: 6.80

Request: Look up and report measured pIC50 (mPTP-active Daoy cell) for the following compound: O=C1c2cc(Cl)ccc2CCC1[n+]1ccc2cn(Cc3ccccc3)cc2c1 (stereo not shown)
Response: 5.45

Request: Give reported pIC50 for O=C1c2ccc(OC(F)(F)F)cc2CCC1[n+]1ccc2c(c1)CC(c1ccccc1)N2 (stereo not shown) (mPTP-active Daoy cell)
Response: 5.25

Request: Enter measured pIC50, system mPTP-active Daoy cell, for the compound shown: O=C1c2cc(Cl)ccc2CCC1[n+]1ccc2c(c1)c(F)cn2Cc1ccccc1 (stereo not shown)
Response: 5.46

Request: Provide pIC50, recorded with mPTP-active Daoy cell, of O=C1c2sccc2CCC1[n+]1ccc2c(ccn2Cc2ccccc2)c1 (stereo not shown)
Response: 5.22

----------
- Tested on: mPTP-active Daoy cell
- Test: Cell viability (Promega CellTiter-Glo), IC50 on mPTP-active Daoy cell
- Format: cell-based
- Condition description: Homo sapiens; Daoy cell transfected with empty virus vector
We label by threshold. Values of IC50 strictly beneath 2 µM are rule met. Values of 2 µM and up are rule not met.

Recorded results for 5 compounds are shown here.
Request: IC50 strictly < 2 µM for this compound? O=C1c2cc(F)ccc2CCC1n1ncc2c[n+](Cc3ccccc3)ccc21 (stereo not drawn)
Response: rule not met

Request: Threshold test, IC50 < 2 µM: Cc1ccc2c(c1)CCC(n1ccc3c[n+](Cc4ccccc4)ccc31)C2=O (stereo not drawn)
Response: rule met

Request: Determine whether this compound shows IC50 lower than 2 µM (ties excluded): `O=C(Cn1c(Br)cc2c[n+](Cc3ccccc3)ccc21)c1cccc(OC(F)(F)F)c1`
Response: rule met

Request: Is the reported IC50 for `Cc1ccc(C(=O)C[n+]2ccc(N3CCc4ccccc43)cc2C)cc1` strictly below 2 µM?
Response: rule not met

Request: State whether 2 µM exceeds IC50 recorded for O=C1c2cc(OC(F)(F)F)ccc2CCC1n1ncc2c[n+](Cc3ccccc3)ccc21 (stereo not drawn) .
Response: rule not met

Others:
Request: Check if IC50 falls below 2 µM for O=C1c2cc(OC(F)(F)F)ccc2CCC1n1ccc2c[n+](Cc3ccccc3)ccc21 (stereo not drawn) .
Response: rule met

Request: Criterion: IC50 strictly below 2 µM. Is it met by CC(=O)N(Cc1ccccc1)c1cc[n+](C2CCc3ccc(Cl)cc3C2=O)cc1 (stereo not drawn) ?
Response: rule not met

Request: Check if IC50 falls below 2 µM for O=C1c2cc(OC(F)(F)F)ccc2CCC1[n+]1ccc2c(c1)CCC(c1ccccc1)N2 (stereo not drawn) .
Response: rule not met

Request: Is 2 µM strictly greater than the compound's reported IC50? compound: `Cc1cn(CC(=O)c2cccc(OC(F)(F)F)c2)c2cc[n+](Cc3ccccc3)cc12`
Response: rule not met

Request: Here's an entry: `Cc1ccc(C(=O)C[n+]2ccc(N3CCCCC3)cc2)cc1` . Is its IC50 below 2 µM?
Response: rule not met

Request: Report whether reported IC50 is lower than 2 µM (strictly) for Cc1ccc(C(=O)Cn2ccc3c[n+](C(C)c4ccccc4)ccc32)cc1 (stereo not drawn)
Response: rule met

Request: I'd appreciate it if you could check whether Cc1cn(Cc2ccccc2)c2cc[n+](C3CCc4ccc(OC(F)(F)F)cc4C3=O)cc12 (stereo not drawn) has IC50 smaller than 2 µM.
Response: rule not met

Request: Answer whether the compound `Cc1cc2c[n+](Cc3ccccc3)ccc2n1CC(=O)c1cccc(C(F)(F)F)c1` has IC50 strictly less than 2 µM
Response: rule met

Request: Is 2 µM strictly greater than the compound's reported IC50? compound: `CC(=O)N(Cc1ccccc1)c1cc[n+](CC(=O)c2ccc(C)cc2)c(C)c1`
Response: rule met

Request: Problem: For the compound `Cc1cn(CC(=O)c2ccc(C(F)(F)F)cc2)c2cc[n+](Cc3ccccc3)cc12` , is IC50 under 2 µM?
Response: rule not met

Request: Lab log: compare recorded IC50 with 2 µM; is it strictly lower for Cn1cc(Cc2ccccc2)c2cc[n+](C3CCc4ccc(C(F)(F)F)cc4C3=O)cc21 (stereo not drawn) ?
Response: rule not met

Request: Please determine if O=C1c2cc(Cl)ccc2CCC1[n+]1ccc2cn(-c3ccccc3)cc2c1 (stereo not drawn) is below 2 µM in terms of IC50.
Response: rule not met

Request: Problem: For the compound Cc1cn(C2CCc3ccc(Cl)cc3C2=O)c2cc[n+](Cc3ccccc3)cc12 (stereo not drawn) , is IC50 under 2 µM?
Response: rule met
